Test system: Microsporum canis
ASSAY REMARKS: Antifungal activity against Microsporum canis LMGO 22 after 5 days microdilution technique
Type: functional
EXPERIMENTAL CONDITIONS: LMGO 22, 120 h
The following compounds are shown together with reported MIC values.
METRIC: MIC (µg/mL)

CCC(C)n1ncn(-c2ccc(N3CCN(c4ccc(OCC5COC(Cn6cncn6)(c6ccc(Cl)cc6Cl)O5)cc4)CC3)cc2)c1=O (centres undefined) [ITRACONAZOLE] :: 16
C#CCCCCCCCC[C@@H]1C[C@H](C[C@@H](O)CO)C(=O)O1 [RUBRYNOLIDE] :: 64
C=CCCCCCCCC[C@@H]1C[C@H](C[C@@H](O)CO)C(=O)O1 [RUBRENOLIDE] :: 128

---

Tested on: Nannizzia gypsea
ASSAY REMARKS: Antifungal activity against Microsporum gypseum LMGO 10 after 5 days microdilution technique
Type: functional
EXPERIMENTAL CONDITIONS: LMGO 10, 120 h
The following compounds are shown together with reported MIC values.
METRIC: MIC (µg/mL)

OC(Cn1cncn1)(Cn1cncn1)c1ccc(F)cc1F :: 16
C=CCCCCCCCC[C@@H]1C[C@H](C[C@@H](O)CO)C(=O)O1 [RUBRENOLIDE] :: 16
C#CCCCCCCCC[C@@H]1C[C@H](C[C@@H](O)CO)C(=O)O1 [RUBRYNOLIDE] :: 32
CCC(C)n1ncn(-c2ccc(N3CCN(c4ccc(OCC5COC(Cn6cncn6)(c6ccc(Cl)cc6Cl)O5)cc4)CC3)cc2)c1=O (centres undefined) :: 0.25

---

Tested on: Microsporum canis
ASSAY REMARKS: Antifungal activity against Microsporum canis LMGO 02 after 5 days microdilution technique
Format: functional
EXPERIMENTAL CONDITIONS: LMGO 02, 120 h
The following molecules are shown together with reported MIC values.
METRIC: MIC (µg/mL)

C#CCCCCCCCC[C@@H]1C[C@H](C[C@@H](O)CO)C(=O)O1 [RUBRYNOLIDE] :: 32
CCC(C)n1ncn(-c2ccc(N3CCN(c4ccc(OCC5COC(Cn6cncn6)(c6ccc(Cl)cc6Cl)O5)cc4)CC3)cc2)c1=O (centres undefined) :: 16
C=CCCCCCCCC[C@@H]1C[C@H](C[C@@H](O)CO)C(=O)O1 [RUBRENOLIDE] :: 16

---

The following molecules are shown together with reported MIC values.
Test system: Trichophyton rubrum
ASSAY REMARKS: Antifungal activity against Trichophyton rubrum LMGO 4218 after 5 days microdilution technique
Format: functional
EXPERIMENTAL CONDITIONS: LMGO 4218, 120 h
METRIC: MIC

OC(Cn1cncn1)(Cn1cncn1)c1ccc(F)cc1F :: 32 µg/mL
CCC(C)n1ncn(-c2ccc(N3CCN(c4ccc(OCC5COC(Cn6cncn6)(c6ccc(Cl)cc6Cl)O5)cc4)CC3)cc2)c1=O (centres undefined) :: 0.5 µg/mL
C#CCCCCCCCC[C@@H]1C[C@H](C[C@@H](O)CO)C(=O)O1 [RUBRYNOLIDE] :: 32 µg/mL
C=CCCCCCCCC[C@@H]1C[C@H](C[C@@H](O)CO)C(=O)O1 [RUBRENOLIDE] :: 16 µg/mL
